Biological target: T1, EsCas13d, nuclease-dead (Eubacterium siraeum, UniProt B0MS50, R295A;H300A;R849A;H854A)
T1 sequence: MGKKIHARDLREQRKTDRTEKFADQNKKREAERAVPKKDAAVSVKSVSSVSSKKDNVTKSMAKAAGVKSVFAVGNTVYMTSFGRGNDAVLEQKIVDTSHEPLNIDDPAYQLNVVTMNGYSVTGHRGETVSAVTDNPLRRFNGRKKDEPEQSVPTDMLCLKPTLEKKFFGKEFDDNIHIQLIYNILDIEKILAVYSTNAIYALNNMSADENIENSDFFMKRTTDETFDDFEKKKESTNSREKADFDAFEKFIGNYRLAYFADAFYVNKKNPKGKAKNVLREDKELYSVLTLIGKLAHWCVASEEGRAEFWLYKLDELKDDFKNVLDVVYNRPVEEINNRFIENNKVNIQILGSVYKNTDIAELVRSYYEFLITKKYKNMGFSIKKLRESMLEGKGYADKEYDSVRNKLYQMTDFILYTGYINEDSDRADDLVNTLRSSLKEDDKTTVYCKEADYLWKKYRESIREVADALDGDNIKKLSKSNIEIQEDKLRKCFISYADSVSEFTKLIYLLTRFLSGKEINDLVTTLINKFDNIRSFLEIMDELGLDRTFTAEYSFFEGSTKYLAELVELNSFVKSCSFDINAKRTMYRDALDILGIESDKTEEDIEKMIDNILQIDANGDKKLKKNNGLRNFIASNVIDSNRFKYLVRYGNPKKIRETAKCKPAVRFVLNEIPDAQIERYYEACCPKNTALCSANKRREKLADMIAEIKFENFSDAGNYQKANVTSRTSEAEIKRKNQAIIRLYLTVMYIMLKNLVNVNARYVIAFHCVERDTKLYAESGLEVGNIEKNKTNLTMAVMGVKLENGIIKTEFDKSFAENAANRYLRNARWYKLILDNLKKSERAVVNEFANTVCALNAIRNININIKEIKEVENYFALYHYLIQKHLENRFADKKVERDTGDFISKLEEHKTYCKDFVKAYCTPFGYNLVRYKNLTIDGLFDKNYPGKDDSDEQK
Test: crRNA (strand 1, pre-loaded); Mg2+; 40 mM Tris-HCl pH 7.5, 150 mM NaCl, 6 mM MgCl2, 1 mM DTT, 0.1% Tween-20, 0.2 mg/ml BSA; 25 C; 10 min per concentration, then washed
Details: tags: His6-TwinStrep-SUMO cleaved; N-terminal SNAP kept (SNAP-Surface 488); label: 3' end held by stalled T7 RNA polymerase
Readout: pKd
// pKd: -log10(molar conc.)

target 1 MT 5'PFS GUA 3'PFS UAA (mixed) RNA 1: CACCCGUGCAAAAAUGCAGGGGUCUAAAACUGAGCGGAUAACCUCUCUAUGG RNA 2: GGGAAUGGAUCCACAUCUACGAAUUCGUACCAUAGAGAGGUUAUCCGCUCAUAAAGAUCGGAAGAGCACACGU
7.86

Continue with the next binder.
Looking up target 1 insA 3' of 10,insA 3' of 7 (mixed) RNA 1: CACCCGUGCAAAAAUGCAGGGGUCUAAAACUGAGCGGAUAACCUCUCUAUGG RNA 2: GGGAAUGGAUCCACAUCUACGAAUUCGUACCAUAGAGAGGUUAAUCACGCUCACCGAGAUCGGAAGAGCACACGU , I found its pKd recorded as 7.98
